- target or test system: adenosine A1 receptor (Bos taurus, UniProt P28190)
- Construct: were homogenized with a Brinkman polytron and the membranes were collected by centrifugation; from tissue; host or cells: bovine caudate membranes
- Sequence (P28190 1-326): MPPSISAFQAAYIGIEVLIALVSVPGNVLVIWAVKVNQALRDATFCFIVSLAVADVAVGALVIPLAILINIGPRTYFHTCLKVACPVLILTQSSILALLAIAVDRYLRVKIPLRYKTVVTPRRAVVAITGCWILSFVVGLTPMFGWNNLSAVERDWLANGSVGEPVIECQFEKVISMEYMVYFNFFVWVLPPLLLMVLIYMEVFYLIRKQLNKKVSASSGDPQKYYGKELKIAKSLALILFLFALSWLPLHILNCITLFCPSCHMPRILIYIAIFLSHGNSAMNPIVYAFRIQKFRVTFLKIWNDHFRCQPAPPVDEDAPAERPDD
- protocol details: Receptor affinity (radioligand binding), A1, [3H]CHA
- Set-up: species or system bovine
- experimental setup: radioligand binding, A2 Ki /A1 Ki
measured metric: Selectivity Ratio (A2 Ki /A1 Ki)

CN(C)c1nc2c(N[C@@H]3C[C@@H]4CC(=O)[C@H]3C4)ncnc2n1C (relative stereo) | 550
Cn1cnc2c(NC3CCCC3)ncnc21 [Example 48, N^6-cyclopentyl-9-methyladenine, reference compound] | 501
Cn1cnc2c(N[C@@H]3C[C@H]4C[C@@H]3c3ccc(O)cc34)ncnc21 (relative stereo) | 316
Cn1cnc2c(N[C@H]3C[C@H]4C[C@@H]3CC4=O)ncnc21 (relative stereo) | 269
Cn1cnc2c(N[C@H]3C[C@@H]4C[C@H]3C[C@@H]4O)ncnc21 (relative stereo) | 165
CCCCN(C)c1nc2c(N[C@H]3C[C@H]4CC[C@@H]3C4)ncnc2n1C (relative stereo) | 240
CSc1nc2c(N[C@H]3C[C@H]4CC[C@@H]3C4)ncnc2n1C (relative stereo) | 66
Cn1cnc2c(N[C@H]3C[C@@H]4C[C@H]3C[C@H]4O)ncnc21 (relative stereo) | 323

P = CN(C)c1nc2c(N[C@H]3C[C@H]4CC[C@@H]3C4)ncnc2n1C (relative stereo)
Q = Cn1cnc2c(N[C@H]3C[C@H]4C[C@@H]3c3ccccc34)ncnc21 (relative stereo)
Q) Selectivity Ratio (A2 Ki /A1 Ki) comparison. Which is larger, P or Q ? Write down the label attached to your selection.
A) Q
(Q: 331, P: 166)

* * *

- target or test system: adenosine A2 receptor
- protocol details: Receptor affinity (radioligand binding), A2, [3H]NECA
- experimental setup: room temperature, 1 hour
measured metric: Ki (µM)

Cn1cnc2c(NC3CCCC3)ncnc21 [Example 48, N^6-cyclopentyl-9-methyladenine, reference compound] | 5.01

a = Cn1cnc2c(N[C@@H]3C[C@@H]4CC[C@H]3C4)ncnc21 (relative stereo) [Example 49, N^6-(endo-2-norbornyl)-9-methyladenine, reference compound]
b = CC(C)n1cnc2c(N[C@@H]3C[C@H]4C[C@@H]3CC4=O)ncnc21 (relative stereo)
c = CCN(CC)c1nc2c(N[C@H]3C[C@H]4CC[C@@H]3C4)ncnc2n1C (relative stereo)
Q) Order the 3 compounds from highest to lowest Ki. # output: labels, in the requested order
A) b, a, c

* * *

- target or test system: adenosine A1 receptor (Bos taurus, UniProt P28190)
- Construct: were homogenized with a Brinkman polytron and the membranes were collected by centrifugation; from tissue; host or cells: bovine caudate membranes
- protocol details: Receptor affinity (radioligand binding), A1, [3H]CHA
- Set-up: species or system bovine
- experimental setup: radioligand binding, A2 Ki /A1 Ki
measured metric: Selectivity Ratio (A2 Ki /A1 Ki)

Cn1cnc2c(N[C@H]3C[C@H]4C[C@@H]3C[C@H]4O)ncnc21 (relative stereo) | 137

I = CCCn1cnc2c(N[C@@H]3C[C@H]4C[C@@H]3C[C@H]4O)ncnc21 (relative stereo)
II = CCN(CC)c1nc2c(NC3CCCC3)ncnc2n1C
Q) From the items above, decide which of I and II has the lower Selectivity Ratio (A2 Ki /A1 Ki) reading. Write down the label attached to your selection.
A) II

a = Cn1cnc2c(NC3CCCCC3)ncnc21 [Example 47, N^6-cyclohexyl-9-methyladenine, reference compound]
b = Cn1cnc2c(N[C@@H]3C[C@@H]4CC[C@H]3C4)ncnc21 (relative stereo) [Example 49, N^6-(endo-2-norbornyl)-9-methyladenine, reference compound]
c = Cn1c(Br)nc2c(N[C@H]3C[C@H]4CC(=O)[C@@H]3C4)ncnc21 (relative stereo)
Q) Order the 3 compounds from highest to lowest Selectivity Ratio (A2 Ki /A1 Ki). # output: labels, in the requested order
A) b, a, c

A = Cn1c(C(N)=O)nc2c(N[C@H]3C[C@H]4CC[C@@H]3C4)ncnc21 (relative stereo)
B = CC(C)n1cnc2c(N[C@@H]3C[C@H]4C[C@@H]3CC4=O)ncnc21 (relative stereo)
Q) Selectivity Ratio (A2 Ki /A1 Ki) comparison. Which is larger, A or B ? Write down the label attached to your selection.
A) A

* * *

- target or test system: adenosine A1 receptor (Cavia porcellus, UniProt P47745)
- Construct: from tissue; host or cells: isolated guinea pig left atria
- Sequence (P47745 whole entry): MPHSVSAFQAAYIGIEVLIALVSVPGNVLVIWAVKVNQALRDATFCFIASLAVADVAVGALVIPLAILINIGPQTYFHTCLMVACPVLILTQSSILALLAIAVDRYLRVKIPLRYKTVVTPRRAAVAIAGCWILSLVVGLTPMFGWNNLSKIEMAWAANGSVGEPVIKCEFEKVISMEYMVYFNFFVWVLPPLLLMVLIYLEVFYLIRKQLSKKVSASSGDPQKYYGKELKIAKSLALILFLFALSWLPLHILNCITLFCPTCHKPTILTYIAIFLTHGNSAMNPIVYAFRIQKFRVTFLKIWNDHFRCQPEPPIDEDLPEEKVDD
- protocol details: A1 in vitro functional test: negative inotropic response, left atria, antagonism of NECA
- Format: cell-based, guinea pig
- experimental setup: functional, A2 KB /A1 KB
measured metric: Selectivity Ratio (A2 KB /A1 KB)

P = Cn1c(Br)nc2c(N[C@H]3C[C@@H]4C[C@H]3C[C@@H]4O)ncnc21 (relative stereo)
Q = CN(C)c1nc2c(N[C@H]3C[C@H]4CC[C@@H]3C4)ncnc2n1C (relative stereo)
R = Cn1cnc2c(N[C@@H]3C[C@@H]4CC[C@H]3C4)ncnc21 (relative stereo) [Example 49, N^6-(endo-2-norbornyl)-9-methyladenine, reference compound]
Q) List items by Selectivity Ratio (A2 KB /A1 KB) in falling order. # output: labels, in the requested order
A) Q, P, R
(Q: 362, P: 65, R: 36)

* * *

- target or test system: adenosine A1 receptor (Bos taurus, UniProt P28190)
- Construct: were homogenized with a Brinkman polytron and the membranes were collected by centrifugation; from tissue; host or cells: bovine caudate membranes
- protocol details: Receptor affinity (radioligand binding), A1, [3H]CHA
- Design: species or system bovine
- experimental setup: radioligand binding, A2 Ki /A1 Ki
- Experimental: 1. Receptor Affinity Experiments (Radioligand Binding) Tissues (bovine caudate, guinea pig cortex, guinea pig striatum) were homogenized with a Brinkman polytron and the membranes were collected by centrifugation at 40,000×g at 4° C. for 10 min. The membranes were washed by resuspension and centrifugation, resuspended, and incubated in the presence of 1 U/ml adenosine deaminase for 15-30 min. at 37° C. […] Assays were terminated by filtration, and the filters were counted in scintillation counters.
measured metric: Selectivity Ratio (A2 Ki /A1 Ki)

Cn1c(Br)nc2c(N[C@H]3C[C@@H]4C[C@H]3C[C@@H]4O)ncnc21 (relative stereo) | 59

P = Cn1c(Br)nc2c(N[C@@H]3C[C@H]4C[C@@H]3C[C@@H]4O)ncnc21 (relative stereo)
Q = Cn1c(C#N)nc2c(N[C@H]3C[C@H]4CC[C@@H]3C4)ncnc21 (relative stereo)
Q) From the items above, decide which of P and Q has the lower Selectivity Ratio (A2 Ki /A1 Ki) reading. Write down the label attached to your selection.
A) P
(P: 132, Q: 362)

* * *

- target or test system: adenosine A1 receptor (Cavia porcellus, UniProt P47745)
- Construct: from tissue; host or cells: isolated guinea pig left atria
- protocol details: A1 in vitro functional test: negative inotropic response, left atria, antagonism of NECA
- Assay type: cell-based, guinea pig
- experimental setup: guinea pig left atria, electrically evoked twitch, NECA agonist, 31° C, Schild plot; read-out: A1 KB (antagonist dissociation constant)
measured metric: Kb (nM)

Cn1cnc2c(NC3CCCC3)ncnc21 [Example 48, N^6-cyclopentyl-9-methyladenine, reference compound] | 759
CCN(CC)c1nc2c(N[C@H]3C[C@H]4CC[C@@H]3C4)ncnc2n1C (relative stereo) | 117
CN(C)c1nc2c(N[C@H]3C[C@H]4CC[C@@H]3C4)ncnc2n1C (relative stereo) | 110

A = Cn1cnc2c(NC3CCCCC3)ncnc21 [Example 47, N^6-cyclohexyl-9-methyladenine, reference compound]
B = Cn1cnc2c(N[C@H]3C[C@@H]4C[C@H]3C[C@@H]4O)ncnc21 (relative stereo)
Q) From the items above, decide which of A and B has the lower Kb reading. Write down the label attached to your selection.
A) B

1 = COc1ccc2c(c1)[C@H]1C[C@H](Nc3ncnc4c3ncn4C)[C@@H]2C1 (relative stereo)
2 = Cn1c(Br)nc2c(N[C@H]3C[C@@H]4C[C@H]3C[C@@H]4O)ncnc21 (relative stereo)
3 = CN(C)c1nc2c(N[C@H]3C[C@@H]4C[C@H]3C[C@@H]4O)ncnc2n1C (relative stereo)
Q) Sort ascending by Kb. # output: labels, in the requested order
A) 2, 3, 1

A = CSc1nc2c(NC3CCCC3)ncnc2n1C
B = Cn1c(C(N)=O)nc2c(N[C@H]3C[C@H]4CC[C@@H]3C4)ncnc21 (relative stereo)
C = Cn1cnc2c(N[C@H]3C[C@@H]4C[C@H]3[C@H](O)C4)ncnc21 (relative stereo)
Q) Sort ascending by Kb. # output: labels, in the requested order
A) A, B, C

1 = Cn1cnc2c(N[C@@H]3C[C@@H]4CC[C@H]3C4)ncnc21 (relative stereo) [Example 49, N^6-(endo-2-norbornyl)-9-methyladenine, reference compound]
2 = Cn1cnc2c(N[C@H]3C[C@@H]4C[C@H]3[C@@H](O)C4)ncnc21 (relative stereo)
Q) Kb comparison. Which is larger, 1 or 2 ? Write down the label attached to your selection.
A) 2

1 = Cn1cnc2c(N[C@H]3C[C@H]4C[C@@H]3c3ccccc34)ncnc21 (relative stereo)
2 = Cn1cnc2c(N[C@@H]3C[C@H]4C[C@@H]3c3ccccc34)ncnc21 (relative stereo)
Q) Kb comparison. Which is larger, 1 or 2 ? Write down the label attached to your selection.
A) 2
(2: 28800 nM, 1: 1580 nM)

1 = COc1nc2c(N[C@H]3C[C@H]4CC[C@@H]3C4)ncnc2n1C (relative stereo)
2 = Cn1cnc2c(N[C@H]3C[C@H]4C[C@@H]3C[C@H]4O)ncnc21 (relative stereo)
Q) Kb comparison. Which is larger, 1 or 2 ? Write down the label attached to your selection.
A) 2
(2: 4070 nM, 1: 105 nM)

a = COc1ccc2c(c1)[C@@H]1C[C@H]2[C@H](Nc2ncnc3c2ncn3C)C1 (relative stereo)
b = CN(C)c1nc2c(NC3CCCC3)ncnc2n1C
Q) From the items above, decide which of a and b has the lower Kb reading. Write down the label attached to your selection.
A) b
(b: 501 nM, a: 64600 nM)

P = CC(C)N(C)c1nc2c(N[C@H]3C[C@H]4CC[C@@H]3C4)ncnc2n1C (relative stereo)
Q = Cn1cnc2c(N[C@H]3C[C@H]4C[C@@H]3[C@@H](O)C4)ncnc21 (relative stereo)
Q) From the items above, decide which of P and Q has the lower Kb reading. Write down the label attached to your selection.
A) P
(P: 5 nM, Q: 6030 nM)
